# System: Mus musculus
# ASSAY TEXT: Analgesic activity in ip dosed albino Swiss mouse assessed as decrease in licking or blowing time administered as single dose measured after 1 hr by hot plate test
# Type: functional
Consider the following compounds and their measured ED50 readings.
QUANTITY: ED50

- O=C(CO[N+](=O)[O-])N1N=C(c2ccc(F)cc2)CC1c1ccc([N+](=O)[O-])cc1 (stereo unspecified): 55.1 mg/kg
- CC(=O)c1ccc(NCC(=O)N2N=C(c3ccc(Br)cc3)CC2c2ccc([N+](=O)[O-])cc2)cc1 (stereo unspecified): 87.8 mg/kg
- O=C(CCl)Nc1ccc(C2=NN(C(=O)CCl)C(c3ccc([N+](=O)[O-])cc3)C2)cc1 (stereo unspecified): 81.9 mg/kg
- CC(=O)Nc1ccc(C2=NN(C(C)=O)C(c3ccc([N+](=O)[O-])cc3)C2)cc1 (stereo unspecified): 48.1 mg/kg
- O=[N+]([O-])c1ccc(C2CC(c3ccc(F)cc3)=NN2)cc1 (stereo unspecified): 59.1 mg/kg
- CC(=O)c1ccc(NCC(=O)N2N=C(c3ccc(F)cc3)CC2c2ccc([N+](=O)[O-])cc2)cc1 (stereo unspecified): 49.4 mg/kg
- CC(=O)Nc1ccc(C2=NN(c3ccccc3)C(c3ccc([N+](=O)[O-])cc3)C2)cc1 (stereo unspecified): 75.2 mg/kg
- CC(=O)c1ccc(NCC(=O)N2N=C(c3ccccc3)CC2c2ccc([N+](=O)[O-])cc2)cc1 (stereo unspecified): 38.6 mg/kg
- Cc1ccc(-c2cc(C(F)(F)F)nn2-c2ccc(S(N)(=O)=O)cc2)cc1: 72 mg/kg
- CC(=O)Nc1ccc(C2=NN(c3ccccc3)C(c3ccc(Cl)cc3)C2)cc1 (stereo unspecified): 49.6 mg/kg
- O=C(CCl)N1N=C(c2ccc(F)cc2)CC1c1ccc([N+](=O)[O-])cc1 (stereo unspecified): 68.2 mg/kg
